Molecular target: wild-type Abl1 (ABL1 SH3 domain) (human, UniProt P00519 61-121)
Sequence (P00519 whole entry, looked up, the tested form may be a part): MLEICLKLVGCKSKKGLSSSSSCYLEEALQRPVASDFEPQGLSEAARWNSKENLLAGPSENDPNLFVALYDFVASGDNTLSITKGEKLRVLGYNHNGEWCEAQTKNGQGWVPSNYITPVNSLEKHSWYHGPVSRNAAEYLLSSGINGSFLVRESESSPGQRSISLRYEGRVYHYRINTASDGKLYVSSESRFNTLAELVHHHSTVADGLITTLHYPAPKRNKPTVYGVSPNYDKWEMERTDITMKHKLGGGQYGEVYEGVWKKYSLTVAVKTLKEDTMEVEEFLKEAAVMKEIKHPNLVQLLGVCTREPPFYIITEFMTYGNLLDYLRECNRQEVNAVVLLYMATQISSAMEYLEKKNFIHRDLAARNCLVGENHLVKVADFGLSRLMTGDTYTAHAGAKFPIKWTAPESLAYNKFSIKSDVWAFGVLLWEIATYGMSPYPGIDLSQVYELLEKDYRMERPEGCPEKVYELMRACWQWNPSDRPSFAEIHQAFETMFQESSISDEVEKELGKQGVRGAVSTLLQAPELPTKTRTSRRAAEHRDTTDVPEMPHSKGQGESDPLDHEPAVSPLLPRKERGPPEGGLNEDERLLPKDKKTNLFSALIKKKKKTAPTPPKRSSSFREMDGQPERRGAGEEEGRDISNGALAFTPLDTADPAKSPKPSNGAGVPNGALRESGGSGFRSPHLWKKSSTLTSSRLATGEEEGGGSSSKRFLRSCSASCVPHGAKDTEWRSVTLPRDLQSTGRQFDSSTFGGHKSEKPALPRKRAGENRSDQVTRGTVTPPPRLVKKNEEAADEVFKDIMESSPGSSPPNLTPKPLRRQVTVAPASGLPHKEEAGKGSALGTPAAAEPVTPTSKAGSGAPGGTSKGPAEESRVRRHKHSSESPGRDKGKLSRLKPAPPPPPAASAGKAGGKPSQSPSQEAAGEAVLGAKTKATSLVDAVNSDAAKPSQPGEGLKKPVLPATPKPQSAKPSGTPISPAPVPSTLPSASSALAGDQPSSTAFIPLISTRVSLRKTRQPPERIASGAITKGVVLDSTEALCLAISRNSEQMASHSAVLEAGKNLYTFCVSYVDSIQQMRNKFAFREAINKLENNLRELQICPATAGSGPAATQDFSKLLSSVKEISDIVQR
Assay: fluorescence polarisation
Ends that are not written are not given here.
measured_endpoint: Kd (µM)

[
  {
    "binder": "PPAYPPPPVP (also: FAM label, position not given here) [3BP2 peptide (FAM labeled)]",
    "observed_value": 5
  }
]
